# testProtocol: Average particle size (ζ-Average) and PDI by dynamic light scattering (Zetasizer Nano ZSP)
# Type: physicochemical
# conditionDescription: F7siRNA-loaded LNP, 50:10:38.5:1.5, N/P ratio 6
observedProperty: ζ-Average (nm)

Example entries begin here.
compound	observedProperty	unitTag	endpointValue
CCCCCCCCCCC(CCCCCCCCCC)C(=O)OCCCCCCC(O)(CCCCCCOC(=O)C(CCCCCCCCCC)CCCCCCCCCC)CCCCOC(=O)C1CCN(C)CC1 [CL15F 12-10]	ζ-Average (nm)	nm	100.2
CCCCCCCC(CCCCC)C(=O)OCCCCCCC(O)(CCCCCCOC(=O)C(CCCCC)CCCCCCC)CCCCOC(=O)C1CCN(C)CC1 (centres unmarked) [CL15F 9-5]	ζ-Average (nm)	nm	129.5
CCCCCCCCC(CCCCCC)C(=O)OCCCCCCC(O)(CCCCCCOC(=O)C(CCCCCC)CCCCCCCC)CCCCN(CCC)CCC (centres unmarked) [CL4F6]	ζ-Average (nm)	nm	92.27
CCCCCCCCCCCC(CCC)C(=O)OCCCCCCC(O)(CCCCCCOC(=O)C(CCC)CCCCCCCCCCC)CCCCOC(=O)C1CCN(C)CC1 (centres unmarked) [CL15F 13-3]	ζ-Average (nm)	nm	126.0
CCCCCCCCCCC(CCCCCCCCCC)C(=O)OCCCCCCC(O)(CCCCCCOC(=O)C(CCCCCCCCCC)CCCCCCCCCC)CCCCN(CCC)CCC [CL4F 12-10]	ζ-Average (nm)	nm	85.62

1 = CCCCCCCCCCC(CCCC)C(=O)OCCCCCCC(O)(CCCCCCOC(=O)C(CCCC)CCCCCCCCCC)CCCCOC(=O)C1CCN(C)CC1 (centres unmarked) [CL15F 12-4]
2 = CCCCCCCC/C=C\CCCCCCCC(=O)OCCCCCCC(O)(CCCCCCOC(=O)CCCCCCC/C=C\CCCCCCCC)CCCCN(CCC)CCC [CL4H6, reference compound]
Between the entries labelled 1 and 2 , which has a larger ζ-Average (nm) value on record? # reply format: chosen label
1

a = CCCCCCCCC(CCCC)C(=O)OCCCCCCC(O)(CCCCCCOC(=O)C(CCCC)CCCCCCCC)CCCCOC(=O)C1CCN(C)CC1 (centres unmarked) [CL15F 10-4]
b = CCCCCCCC(CCC)C(=O)OCCCCCCC(O)(CCCCCCOC(=O)C(CCC)CCCCCCC)CCCCOC(=O)C1CCN(C)CC1 (centres unmarked) [CL15F 9-3]
Quick one: lower ζ-Average (nm), a or b ? Respond with the label that goes with your answer.
a

P = CCCCCCCCCCCC(CCC)C(=O)OCCCCCCC(O)(CCCCCCOC(=O)C(CCC)CCCCCCCCCCC)CCCCN(CCC)CCC (centres unmarked) [CL4F 13-3]
Q = CCCCCCCCCCCCC(CC)C(=O)OCCCCCCC(O)(CCCCCCOC(=O)C(CC)CCCCCCCCCCCC)CCCCOC(=O)C1CCN(C)CC1 (centres unmarked) [CL15F 14-2]
Param pair: P , Q . Output: the one whose ζ-Average (nm) is numerically greater. Which one? Tell me its label.
Q
(Q: 143.9 nm, P: 92.25 nm)

====

# testProtocol: siRNA/mRNA encapsulation rate by Ribogreen reagent (section IV)
# Format: physicochemical
# conditionDescription: FlucmRNA-loaded LNP, 50:10:38.5:1.5
observedProperty: % mRNA encapsulation (%)

compound	unitTag	% mRNA encapsulation
CCCCCCCCCCC(CCCCCC)C(=O)OCCCCCCC(O)(CCCCCCOC(=O)C(CCCCCC)CCCCCCCCCC)CCCCN(CCC)CCC (stereo not drawn)	%	99.7
CCCCCCCCCCC(CCCCCCCCCC)C(=O)OCCCCCCC(O)(CCCCCCOC(=O)C(CCCCCCCCCC)CCCCCCCCCC)CCCCN(CCC)CCC	%	99.6
CCCCCCCCCC(CCCCCCC)C(=O)OCCCCCCC(O)(CCCCCCOC(=O)C(CCCCCCC)CCCCCCCCC)CCCCN(CCC)CCC (stereo not drawn)	%	99.7
CCCCCCCCC(CCCCCCCC)C(=O)OCCCCCCC(O)(CCCCCCOC(=O)C(CCCCCCCC)CCCCCCCC)CCCCN(CCC)CCC	%	99.8
CCCCCCCCCC(CCCCC)C(=O)OCCCCCCC(O)(CCCCCCOC(=O)C(CCCCC)CCCCCCCCC)CCCCN(CCC)CCC (stereo not drawn)	%	99.6
CC(CCC(C(=O)OCCCCCCC(O)(CCCCCCOC(=O)C(CCC(C)CC(C)(C)C)C(C)CC(C)(C)C)CCCCOC(=O)C1CCN(C)CC1)C(C)CC(C)(C)C)CC(C)(C)C (stereo not drawn)	%	100.24
